Source listed as PubChem BioAssay.

Test system: Sam68 (KHDRBS1)
assayMethodText: Sam68 small-molecule binders, primary screen, biochemical, small-molecule microarray, 635 nm fluorescence (AID 1125);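 also: score merges 667 nm channel intensity with signal to noise over triplicate slides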
experimentalParameters: small-molecule microarray binding, higher = more signal
Label criterion met when composite z-score >= 0.9; otherwise criterion not met.

compound=CCc1cc2c(nc1CC)CCN(CCC(C)=NO[C@H](C)c1cn([C@@H]3COC[C@H]3O)nn1)C2 measuredon="Sam68 (KHDRBS1)" label="criterion not met"
compound="CCOC(=O)[C@H](Cc1ccccc1)NC(=O)CCC1CC(OC(=O)NCc2cccc3ccccc23)CC2(CCCC(COC(=O)NCc3cccc(C(F)(F)F)c3)O2)O1 (stereo not given in full)" measuredon="Sam68 (KHDRBS1)" label="criterion not met"
compound=COc1ccc(O[C@@H]2[C@H](O)CO[C@H]2C=Cc2ccccc2)cc1 measuredon="Sam68 (KHDRBS1)" label="criterion not met"
compound=CO[C@@H]1COC(=O)[C@@H]2CCCN2C(=O)[C@@H](C)COC(=O)CC=C[C@H]1C measuredon="Sam68 (KHDRBS1)" label="criterion met"
compound=CC(C)=CCCC(C)=CCON=C1C[C@@H](O)[C@@H](O)[C@@H]2[C@@H]3C(=O)N(Cc4ccccc4)C(=O)[C@@H]3CC[C@@H]12 measuredon="Sam68 (KHDRBS1)" label="criterion not met"
compound=CC(C)CON=C1C[C@@H](O)[C@@H](O)[C@@H]2[C@@H]3C(=O)N(C4CCCCC4)C(=O)[C@@H]3CC[C@@H]12 measuredon="Sam68 (KHDRBS1)" label="criterion not met"
compound="CCOC(=O)[C@H](CC(C)C)NC(=O)CCC1CC(OC(=O)NCCc2ccc(F)cc2)CC2(CCCC(COC(=O)NCC(c3ccccc3)c3ccccc3)O2)O1 (stereo not given in full)" measuredon="Sam68 (KHDRBS1)" label="criterion met"
compound=CCN1C(=O)[C@H]2[C@H]3[C@H](O)[C@H](O)CC(=O)[C@H]3CC[C@H]2C1=O measuredon="Sam68 (KHDRBS1)" label="criterion not met"
compound=CC(=O)Nc1ccc([C@@H]2N[C@H](C(=O)O)CC[C@H]2C)cc1 measuredon="Sam68 (KHDRBS1)" label="criterion not met"
compound=COc1cccc([C@H]2Oc3ccc(OC)cc3C(=NOC[C@@H](O)[C@H]3O[C@@H]4OC(C)(C)O[C@@H]4[C@H]3O)[C@@H]2O)c1 measuredon="Sam68 (KHDRBS1)" label="criterion not met"
compound="CCOC(=O)[C@H](CC(C)C)NC(=O)CCC1CC(OC(=O)NCCc2ccc(F)cc2)CC2(CCCC(COC(=O)NCCOc3ccccc3)O2)O1 (stereo not given in full)" measuredon="Sam68 (KHDRBS1)" label="criterion met"
compound=O=C1[C@H]2[C@H]3[C@H](O)[C@H](O)CC(=NOCc4ccccc4)[C@@H]3CC[C@H]2C(=O)N1Cc1ccc2c(c1)OCO2 measuredon="Sam68 (KHDRBS1)" label="criterion not met"
compound=COC(=O)[C@H]1O[C@@H](c2c(OC)c(OC)c(C)c(OC)c2OC)[C@H](C)[C@@H](O)[C@H]1C measuredon="Sam68 (KHDRBS1)" label="criterion met"
